System: HOP-92
experiment: NCI tumour cell line growth inhibition, 48 h
The source made the active and inactive calls. Rule as the data show it: active = GI50 up to about 1.1 µM and inactive = higher.
Select the matching outcome among t = active, f = inactive

Examples from the recorded data:
| molecule | discrete_label |
| --- | --- |
| Cc1ccc(S(=O)(=O)c2scc(-c3ccccc3)c2C)cc1 | f |
| CCOC(=O)C1OC(C2(C)OC3(OC4(C=CC3O)OC(C(C)C(=O)C(C)C(O)C(C)CC(C)c3c(Cl)cc(C)c(O)c3C(=O)O)C(C)CC4C)C(C)C2OC)CC1O (stereo not given) | f |
| CCCCCCCCCCCCCCCCSS(C)(=O)=O | f |
| CC1=NN(C(=O)CC(=O)Nc2ccc(C)cc2)C(=O)C1/N=N/c1ccc(C(=O)O)cc1 (stereo not given) | f |
| CCOC(=O)c1c(NNc2ccccc2)nc2ccccc2c1-c1ccccc1 | f |

Lookup: Test call for this molecule, please: CN(C)CC1CCC/C(=C\c2ccc(OC(=O)/C=C/c3ccc(Cl)cc3)cc2)C1=O (stereo not given)
Found: f

Lookup: I'd appreciate the recorded outcome for Nc1nc(O)c2c(ncn2CCO)n1 from this test.
Found: f

Lookup: Record request — test call for CC(=O)OC1C/C(C)=C/[C@H](O)CC(C)/C=C/[C@@]2(C)CCC(C(C)(C)O)C12 (stereo not given in full)
Found: f

Lookup: Any idea what this test logged for CCN(CC)Cc1nc2sc3c(c2c(=O)n1-c1ccccc1)CCCC3 ?
Found: f

Lookup: Tell me the assay call for C[C@H]1O[C@@H](c2c(O)ccc3ccccc23)C[C@@H](N(C)C)C1O (stereo not given in full) please.
Found: f

Lookup: // return assay outcome for CC(=O)CC(=O)CCC(=O)O
Found: t

Lookup: Which outcome was assigned to CC(=O)Oc1ccc(-c2nnc(-c3ccc(OC(C)=O)cc3)nn2)cc1 in this test?
Found: f
